Values compiled from the supplement of paper PMC11451515.

Form field: cell viability (one value per entry).
# Tested on: NOMO1
# protocol notes: cell viability relative to DMSO control; higher = less cytotoxic
# applied conditions: RPMI 5 mM glucose + 10% dialyzed FBS; 48 h; 0.19 µM
Give just the numeric value; % need not be written.

Recorded results for 2 molecules are shown here.
O=C([O-])C[C@H](O)C[C@H](O)/C=C/c1c(C2CC2)nc2ccccc2c1-c1ccc(F)cc1 | 119
N\C1=N\C2=C(N=C[N]2COCCO)C(=O)N1 | 113

Now for the molecule whose cell viability we want.
Entry "CCOc1cc2ncc(C#N)c(Nc3ccc(OCc4ccccn4)c(Cl)c3)c2cc1NC(=O)/C=C/CN(C)C" ; cell viability = 113

* * *

Each entry below carries its reported cell viability.
# Tested on: SEM cells
# protocol notes: cell viability relative to DMSO control; higher = less cytotoxic
# applied conditions: RPMI 5 mM glucose + 10% FBS; 48 h; 0.00234 µM

Example entries begin here.
CC1=C(/C=C/C(C)=C/C=C/C(C)=C\C(=O)O)C(C)(C)CCC1 | 93.2%
CC(=O)OC[C@H]1O[C@@H]([S-])[C@H](OC(C)=O)[C@@H](OC(C)=O)[C@@H]1OC(C)=O.CCP(CC)CC.[Au+] | 75%
N#Cc1ccc(Oc2ccc3c(c2)COB3O)cc1 | 108%

// cell viability lookup, molecule = "CCc1cc2c(cc1N1CCC(N3CCOCC3)CC1)C(C)(C)c1[nH]c3cc(C#N)ccc3c1C2=O" , result: 49.4%

response.value for "COc1ccc(C(=O)c2c(C)n(CCN3CCOCC3)c3ccccc23)cc1" (field: cell viability) = 89%

# cell viability of "CCOc1cc2ncc(C#N)c(Nc3ccc(OCc4ccccn4)c(Cl)c3)c2cc1NC(=O)/C=C/CN(C)C" = 95.4%

# cell viability (molecule: CC1(CN2CCC(n3c(=O)[nH]c4ccccc43)CC2)OCc2ccccc2-n2cccc21 (centres undefined) ) is 90.5%

* * *

Collected cell viability values appear next to each entry.
# System: NOMO1
# protocol notes: cell viability relative to DMSO control; higher = less cytotoxic
# applied conditions: HPLM + 10% dialyzed FBS; 48 h; 46.1 µM
Provide a numeric answer, followed by its unit.

O=C(Nc1nnc(-c2ccco2)o1)c1cc(-c2ccccc2)nc2ccccc12 | 6.68%
CCOC(=O)C(C#N)C\1C2=CC(=CC=C2O\C(=C1C(=O)OCC)N)Br (centres undefined) | 97.5%
OC[C@H]1O[C@H](C[C@@H]1O)N2\C=C(F)/C(=O)NC2=O | 17.9%
OC1=CC2=C(C=C1)C(=O)\C(=C(O2)\C3=CC(=C(O)C=C3)O)O | 65.6%
CCc1cc2c(cc1N1CCC(N3CCOCC3)CC1)C(C)(C)c1[nH]c3cc(C#N)ccc3c1C2=O | 68.3%
CCn1c(-c2nonc2N)nc2c(C#CC(C)(C)O)ncc(OC[C@H]3CCCNC3)c21 | 48%

Summary for this molecule, C[C@H](CCC(=O)O)[C@H]1CCC2C3C[C@H](O)[C@@H]4C[C@H](O)CC[C@]4(C)C3CC[C@@]21C (some centres undefined) : cell viability is 110%

The measured cell viability associated with O=C(O)CCCCC(CCSCc1ccccc1)SCc1ccccc1 (centres undefined) reads 28.7%

Briefly, cell viability measured for "CC(=O)OC[C@H]1O[C@@H]([S-])[C@H](OC(C)=O)[C@@H](OC(C)=O)[C@@H]1OC(C)=O.CCP(CC)CC.[Au+]" : 5.33%

* * *

# Test system: SEM cells
# protocol notes: AUC of viability dose-response curve (% viability x log10 dose units); higher = less sensitive
# applied conditions: RPMI 5 mM glucose + 10% FBS; 48 h
Param label: returns Fulfilled when AUC of viability dose-response curve < 400, returns Not fulfilled otherwise, including exact equality.

Cc1ccc(C(=O)Nc2cccc(C(F)(F)F)c2)cc1-c1ccc2nc(NCCN3CCOCC3)ncc2c1 | Fulfilled
C[C@@H]1CCN(C(=O)CC#N)C[C@@H]1N(C)c1ncnc2[nH]ccc12 | Not fulfilled
C[C@H]1C[C@H]2[C@@H]3CC[C@](O)(C(=O)CO)[C@@]3(C)C[C@H](O)[C@@H]2[C@@]\4(C)/C=C\C(=O)\C=C14 | Fulfilled

Input: Lab log: compare recorded AUC of viability dose-response curve with 400; is it strictly lower for "CC(C)N(C[C@H]1O[C@@H](n2cnc3c(N)ncnc32)[C@H](O)[C@@H]1O)[C@H]1C[C@@H](CCc2nc3cc(C(C)(C)C)ccc3[nH]2)C1" ?
Output: Fulfilled

* * *

# Test system: SEM cells
# protocol notes: cell viability relative to DMSO control; higher = less cytotoxic
# applied conditions: RPMI 5 mM glucose + 10% dialyzed FBS; 48 h; 1.71 µM
endpoint: cell viability

Examples with their reported cell viability follow.
COC(=O)Nc1nc2cc(C(=O)c3ccc(F)cc3)ccc2[nH]1 | 52%
O=C(CCc1ccc(O)cc1)c1c(O)cc(O)cc1O | 91%
OC1=CC2=C(C=C1)C(=O)\C(=C(O2)\C3=CC(=C(O)C=C3)O)O | 88.5%

Then this compound:
# value of cell viability, SEM cells, item "CCC[S+](=O)([O-])Nc1ccc(F)c(C(=O)c2c[nH]c3ncc(Cl)cc23)c1F" = 120%

* * *

The reader will find reported cell viability values listed item by item below.
# Tested on: NOMO1
# protocol notes: cell viability relative to DMSO control; higher = less cytotoxic
# applied conditions: RPMI 5 mM glucose + 10% FBS; 48 h; 0.00702 µM
Quick reminder: number only, in %, skip the unit.

Known results for molecules:
CN(C)c1ccc2nc3ccc(N(C)C)cc3[s+]c2c1 | 89.2
C[C@]12Cc3cn[nH]c3C[C@@H]1CC[C@@H]1[C@@H]2CC[C@@]2(C)[C@H]1CC[C@]2(C)O | 100
CC[C@]12CC[C@H]3[C@@H](CCC/4=C/C(=O)CC[C@H]34)[C@@H]1CC[C@@]2(O)C#C | 95

The molecule "O=C/1NC(=O)C(=C1C2=CN=C3C=CC=C[N]23)/C4=C[N]5CCN(CC6=C5C4=CC=C6)C(=O)N7CCOCC7" on NOMO1: cell viability was 137

I looked up "CCN(CC)CCOc1ccc(Cc2ccccc2)cc1" and its cell viability for NOMO1 was 94.2

* * *

# Test system: NOMO1
# protocol notes: cell viability relative to DMSO control; higher = less cytotoxic
# applied conditions: RPMI 5 mM glucose + 10% dialyzed FBS; 48 h; 46.1 µM
The threshold is 80%. Values of cell viability beneath it are tagged YES; values meeting or exceeding it are tagged NO.

Use the examples below as a reference point.
NC(=O)Nc1sc(-c2ccc(F)cc2)cc1C(N)=O | YES
OC[C@H]1O[C@H](C[C@@H]1O)N2\C=C(F)/C(=O)NC2=O | YES
O=C1\C=C/C=C2/[C@H]3CNC[C@H](C3)CN12 | YES
O=C(CS(=O)Cc1ccco1)NC/C=C\COc1cc(CN2CCCCC2)ccn1 (stereo not given) | NO

Input: Does N[C@H]2CN(CC12CC1)c3c(F)cc4c(c3Cl)[N@@](C=C(C4=O)C(=O)O)C5C[C@H]5F (stereo not given in full) have cell viability strictly under 80%?
Output: YES

* * *

Quick list: cell viability per entry.
# System: SEM cells
# protocol notes: cell viability relative to DMSO control; higher = less cytotoxic
# applied conditions: RPMI 5 mM glucose + 10% FBS; 48 h; 5.12 µM
Just the number please, in %, no unit attached.

Known cell viability results, listed for orientation:
C/C(=N\NC(=S)N1CCC1)c1ccccn1 | 2.32
Cc1cn([C@H]2C=C[C@@H](CO)O2)c(=O)[nH]c1=O | 104
CCN(CCO)CCCOc1ccc2c(Nc3cc(CC(=O)Nc4cccc(F)c4)[nH]n3)ncnc2c1 | 21.9
CC\12CCC(=O)\C=C1CCC3C2CCC4(C)C3CCC4(O)C#C (stereo not given) | 70.7

Proceeding to the next compound to report its cell viability.
Bench note, SEM cells: entry "C[N]1C=C(C2=CC=CC=C12)\C3=C(\C(=O)NC3=O)C4=C[N](C5CCN(CC5)CC6=NC=CC=C6)C7=C4C=CC=C7" , its cell viability = 102

* * *

# Tested on: SEM cells
# protocol notes: AUC of viability dose-response curve (% viability x log10 dose units); higher = less sensitive
# applied conditions: RPMI 5 mM glucose + 10% FBS; 48 h
Lab note - cut at 400 for AUC of viability dose-response curve: condition met if strictly below, condition not met if not.

Example entries begin here.
CC[C@@H]1C(=O)N(C)c2cnc(Nc3ccc(C(=O)NC4CCC(N5CCN(CC6CC6)CC5)CC4)cc3OC)nc2N1C(C)C (some centres undefined) | condition met
C[N]1C=C(C2=CC=CC=C12)\C3=C(\C(=O)NC3=O)C4=C[N](C5CCN(CC5)CC6=NC=CC=C6)C7=C4C=CC=C7 | condition not met
O=C(/C=C/c1ccc(CN(CCO)CCc2c[nH]c3ccccc23)cc1)NO | condition met

Input: Record "C=CCNc1c(O)cc2c(O)c1C[C@@H](C)C[C@H](OC)[C@H](O)[C@@H](C)/C=C(/C)[C@H](OC(N)=O)[C@@H](OC)/C=C\C=C(\C)C(=O)N2" : is its AUC of viability dose-response curve strictly below 400?
Output: condition met

Input: Input "O=C(Nc1c[nH]nc1-c1nc2cc(CN3CCOCC3)ccc2[nH]1)NC1CC1" ; condition: AUC of viability dose-response curve strictly below 400. Does it hold?
Output: condition met

Input: Just wondering, is AUC of viability dose-response curve of COc1ccc(C(CN(C)C)C2(O)CCCCC2)cc1 (centres undefined) below 400?
Output: condition not met

Input: Is AUC of viability dose-response curve strictly under 400 for the entry "O=[N+]([O-])c1ncc[nH]1" ?
Output: condition not met

Input: AUC of viability dose-response curve under 400? Item: "CN(C)C1=CC(=CC=C1)C\2=C\3C(=O)N(NC3=C/C(=O)N2C)C4=CC=CC=C4Cl"
Output: condition met
